Target: α4β1 integrin (Homo sapiens, UniProt P05556+P13612)
Construct: Jurkat cells endogenously express α4β1 integrin
Sequence (P13612 34-1032): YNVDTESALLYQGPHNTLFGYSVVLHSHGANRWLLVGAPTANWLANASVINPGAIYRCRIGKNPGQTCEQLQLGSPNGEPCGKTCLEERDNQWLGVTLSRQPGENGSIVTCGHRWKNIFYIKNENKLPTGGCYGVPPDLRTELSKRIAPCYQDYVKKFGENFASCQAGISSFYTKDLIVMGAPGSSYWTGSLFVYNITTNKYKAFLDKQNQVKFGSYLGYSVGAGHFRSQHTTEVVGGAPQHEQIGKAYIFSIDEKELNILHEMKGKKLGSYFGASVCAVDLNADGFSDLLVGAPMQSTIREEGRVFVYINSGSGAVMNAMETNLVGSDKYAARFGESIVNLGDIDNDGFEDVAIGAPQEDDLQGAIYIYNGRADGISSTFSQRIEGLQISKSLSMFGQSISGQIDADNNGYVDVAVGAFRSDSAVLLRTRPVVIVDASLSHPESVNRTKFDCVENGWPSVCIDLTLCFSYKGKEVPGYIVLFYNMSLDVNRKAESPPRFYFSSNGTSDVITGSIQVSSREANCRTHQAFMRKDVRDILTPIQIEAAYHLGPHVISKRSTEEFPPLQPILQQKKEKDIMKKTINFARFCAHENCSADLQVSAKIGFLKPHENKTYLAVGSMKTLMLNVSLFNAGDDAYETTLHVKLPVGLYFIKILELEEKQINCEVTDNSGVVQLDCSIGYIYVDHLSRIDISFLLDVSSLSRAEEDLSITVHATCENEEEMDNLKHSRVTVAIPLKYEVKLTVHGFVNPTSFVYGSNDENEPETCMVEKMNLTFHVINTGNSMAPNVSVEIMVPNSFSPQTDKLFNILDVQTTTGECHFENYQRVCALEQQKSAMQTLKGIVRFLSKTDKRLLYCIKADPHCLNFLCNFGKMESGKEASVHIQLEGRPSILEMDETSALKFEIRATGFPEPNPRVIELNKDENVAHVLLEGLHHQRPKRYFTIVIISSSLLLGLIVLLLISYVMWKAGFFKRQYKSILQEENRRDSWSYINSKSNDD
Sequence (P05556 21-798): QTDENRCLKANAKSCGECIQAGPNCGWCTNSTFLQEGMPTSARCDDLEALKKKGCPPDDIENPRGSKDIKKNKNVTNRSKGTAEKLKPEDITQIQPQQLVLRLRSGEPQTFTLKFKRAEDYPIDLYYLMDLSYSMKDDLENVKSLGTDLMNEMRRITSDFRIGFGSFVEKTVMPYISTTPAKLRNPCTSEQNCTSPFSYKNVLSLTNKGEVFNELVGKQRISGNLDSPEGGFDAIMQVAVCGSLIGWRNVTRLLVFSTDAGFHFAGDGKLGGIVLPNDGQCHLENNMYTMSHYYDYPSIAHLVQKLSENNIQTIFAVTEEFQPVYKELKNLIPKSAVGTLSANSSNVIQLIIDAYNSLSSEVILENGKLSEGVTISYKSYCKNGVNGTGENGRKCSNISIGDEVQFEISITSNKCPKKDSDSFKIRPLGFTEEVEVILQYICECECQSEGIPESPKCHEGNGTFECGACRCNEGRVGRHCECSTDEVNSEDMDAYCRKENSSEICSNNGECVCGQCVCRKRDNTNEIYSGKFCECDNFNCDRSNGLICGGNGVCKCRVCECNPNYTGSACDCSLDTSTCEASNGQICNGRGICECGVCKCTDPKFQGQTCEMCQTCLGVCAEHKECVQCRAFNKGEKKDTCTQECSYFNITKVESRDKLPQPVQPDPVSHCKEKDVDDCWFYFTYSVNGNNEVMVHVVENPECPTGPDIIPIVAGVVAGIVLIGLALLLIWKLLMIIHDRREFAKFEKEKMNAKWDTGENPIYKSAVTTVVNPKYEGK
Test: Jurkat cell adhesion assay on VCAM-1-coated wells
Settings: Jurkat cell adhesion to VCAM-1 (2 μg/mL); means ± SD, n = 3; tested 0.1 nM to 100 μM; read-out: EC50/IC50 (IC50 for compounds reducing cell adhesion)
Description: To investigate the ability of the newly synthesized cyclopeptidomimetics 12–18 to recognize and bind α4β1 integrin, cell adhesion assays were performed on VCAM-1. The compounds were evaluated for their ability to interfere with α4β1 integrin-mediated cell adhesion by using Jurkat cells, which are known to constitutively express this integrin [46, 48, 49, 50, 51]. […] The number of adherent cells was determined as described above.
pIC50: −log10 of the molar value. *1 amine or outer side, *2 acyl side, *3 side chain or, on linkers, in order; H or OH if unused. Where a SMILES comes first, the peptide text is derived from it. Bridges are numbered along the chain shown (N, C = ends). [ ]: non-standard residue; d: D form. The star is where a group is joined. ξ: configuration not given here. ξPro(4ξ-NH2) = O=C(C1CC(N[*:3])CN1[*:1])[*:2]; X1 = O=C(Cc1ccc(N[*:1])cc1)[*:2]; NH(2-Me-phenyl) = Cc1ccccc1N*; CO = O=C([*:1])[*:2]
Recorded pIC50 by entry

| compound | pIC50 |
| --- | --- |
| Cc1ccccc1NC(=O)Nc1ccc(CC(=O)N2CC3CC2C(=O)NC(C(C)C)C(=O)NC(CCC(=O)O)C(=O)NC(CC(C)C)C(=O)N3)cc1 (stereo not drawn) [Compound 17, c[(MPUPA)Amp-Val-Glu-Leu]] ({NH(2-Me-phenyl)-CO}-[X1][ξPro(4ξ-NH2)]VEL; lactam 2-C; configuration not given here) | < 4.00 |
| Cc1ccccc1NC(=O)Nc1ccc(CC(=O)N2CC3CC2C(=O)NC(CC(C)C)C(=O)NC(CCC(=O)O)C(=O)NC(C(C)C)C(=O)NCC(=O)N3)cc1 (stereo not drawn) [Compound 13, c[(MPUPA)Amp-Leu-Glu-Val-Gly]] ({NH(2-Me-phenyl)-CO}-[X1][ξPro(4ξ-NH2)]LEVG; lactam 2-C; configuration not given here) | < 4.00 |
| Cc1ccccc1NC(=O)Nc1ccc(CC(=O)N2CC3CC2C(=O)NC(CC(C)C)C(=O)NC(CCC(=O)O)C(=O)NC(C(C)C)C(=O)N3)cc1 (stereo not drawn) [Compound 15, c[(MPUPA)Amp-Leu-Glu-Val]] ({NH(2-Me-phenyl)-CO}-[X1][ξPro(4ξ-NH2)]LEV; lactam 2-C; configuration not given here) | < 4.00 |

Where do the numbers come from? From paper PMC8512764.
